- tested.on: T1, human ORL-1 receptor (opioid receptor like 1) (human, UniProt P41146 1-370)
- T1 construct: whole, on cells; Assays were run on membranes of CHO cells transfected with human ORL-1; also called opiate receptor like 1; nociceptin receptor
- test.method.notes: [3H]nociceptin displacement, membranes of CHO cells transfected with human ORL-1; Ki=IC50/(1+L/Kd)
Numbered stars: 1 amine (or outer) side, 2 acyl side, 3 side chain; on linkers, the order of the positions; unused ones are H or OH. Square brackets hold non-standard residues; d marks the D form. Phe(4-NHAc) = 4-acetamidophenylalanine, CC(=O)Nc1ccc(C[C@H](N[*:1])C(=O)[*:2])cc1; Phe(4-NO2) = N[C@@H](Cc1ccc([N+](=O)[O-])cc1)C(=O)O; Phe(4-SO3H) = N[C@@H](Cc1ccc(S(=O)(=O)O)cc1)C(=O)O
Reported log10 of Ki by item:
endpoint: log10 of Ki (log10 of the value in nM)

binder: Ac-R[Phe(4-SO3H)]YRWR-NH2 (also called Ac-Arg-Phe(SO3H)-Tyr-Arg-Trp-Arg-NH2) [VII-27-B]
log10 of Ki: 2.19

binder: {β‑aminoisobutryl}-RYYRWR-NH2 (also called β-aminoisobutryl-Arg-Tyr-Tyr-Arg-Trp-Arg-NH2) [VII-3-A]
log10 of Ki: 0.07

binder: Ac-RY[Phe(4-NHAc)]RWR-NH2 (SMILES CC(=O)Nc1ccc(C[C@H](NC(=O)[C@H](Cc2ccc(O)cc2)NC(=O)[C@H](CCCNC(=N)N)NC(C)=O)C(=O)N[C@@H](CCCNC(=N)N)C(=O)N[C@@H](Cc2c[nH]c3ccccc23)C(=O)N[C@@H](CCCNC(=N)N)C(N)=O)cc1, also called Ac-Arg-Tyr-Phe(4-NHAc)-Arg-Trp-Arg-NH2) [VII-77-A]
log10 of Ki: -0.06

binder: Ac-R[Tyr(4-Me)]YRWR-NH2 (also called Ac-Arg-Tyr(4-Me)-Tyr-Arg-Trp-Arg-NH2) [VII-35-C]
log10 of Ki: -0.37

binder: Ac-RY[Phe(4-NO2)]RWR-NH2 (SMILES CC(=O)N[C@@H](CCCNC(=N)N)C(=O)N[C@@H](Cc1ccc(O)cc1)C(=O)N[C@@H](Cc1ccc([N+](=O)[O-])cc1)C(=O)N[C@@H](CCCNC(=N)N)C(=O)N[C@@H](Cc1c[nH]c2ccccc12)C(=O)N[C@@H](CCCNC(=N)N)C(N)=O, also called Ac-Arg-Tyr-Phe(4-NO2)-Arg-Trp-Arg-NH2) [VII-63-B]
log10 of Ki: -0.77
